- System: primary human fibroblasts derived from IPF patients (LL29 cells) treated with TGF-β1
- ASSAY COMMENT: Inhibition of the fibrotic process: αSMA staining in TGF-β1 treated primary human fibroblasts from IPF patients (LL29 cells)
- Assay type: cell-based
- PROTOCOL CONDITIONS: Fibroblast, 96 h, TGF-β1 20 ng/mL, 4 days, % αSMA positive cells
Exercise: for every item that follows, state its recorded EC50.
Give bare numbers, in nM.

>>> assay_value("CN1CCN(c2cccc3[nH]c(-c4n[nH]c5ccc(-c6cncc(NC(=O)CC(C)(C)C)c6)nc45)cc23)CC1")
1750
>>> assay_value("CN1CCN(c2cccc3[nH]c(-c4n[nH]c5ccc(-c6cncnc6)nc45)cc23)CC1")
7790
>>> assay_value("Fc1ccccc1-c1cccc2[nH]c(-c3n[nH]c4ccc(-c5cncc(CN6CCCCC6)c5)nc34)cc12")
725

We now examine a further molecule.
# input Endpoint output: EC50 of CC(C)Nc1cncc(-c2ccc3[nH]nc(-c4cc5ncccc5[nH]4)c3n2)c1 . Value?
# output 1970

---

- Test system: IL-6 (THP-1 cells)
- ASSAY COMMENT: IL-6 inhibition in LPS-stimulated THP-1 human monocyte cells (HTRF)
- Type: cell-based
- PROTOCOL CONDITIONS: LPS 500 ng/mL, 22 hours, IL6 HTRF
Doc: threshold 300 nM (exclusive). Items with EC50 beneath it return Y; others return N.

# input Decide: EC50 of CC(C)(C)CC(=O)Nc1cncc(-c2ccc3[nH]nc(-c4cc5c(-c6cc(F)cc(CNS(C)(=O)=O)c6)cccc5[nH]4)c3n2)c1 [Compound 492] strictly below 300 nM?
# output Y

# input Also c1cc(-c2ccoc2)c2cc(-c3n[nH]c4ccc(-c5cncc(OC6CCCCC6)c5)nc34)[nH]c2c1 [Compound 715] ?
# output N

# input Also Fc1cccc(-c2cccc3[nH]c(-c4n[nH]c5ccc(-c6cncc(CN7CCC(F)(F)C7)c6)nc45)cc23)c1 [Compound 26] ?
# output N

# input Also CN(C)CCOc1cncc(-c2ccc3[nH]nc(-c4cc5c(-c6cccnc6)cccc5[nH]4)c3n2)c1 [Compound 591] ?
# output Y

# input Also c1cc(-c2ccncc2)c2cc(-c3n[nH]c4ccc(-c5cncc(OCCN6CCCC6)c5)nc34)[nH]c2c1 [Compound 606] ?
# output Y

# input Also c1cc(N2CCCCC2)c2cc(-c3n[nH]c4ccc(-c5cncnc5)nc34)[nH]c2c1 [Compound 195] ?
# output Y

# input Also CC(C)Nc1cncc(-c2ccc3[nH]nc(-c4cc5c(-c6cccnc6)cccc5[nH]4)c3n2)c1 [Compound 96] ?
# output Y

# input Also CN(C)CCNc1cc(F)cc(-c2cccc3[nH]c(-c4n[nH]c5ccc(-c6cncc(CN7CCCCC7)c6)nc45)cc23)c1 [Compound 463] ?
# output Y

# input Also c1ccc(-c2ccc3[nH]nc(-c4cc5c(N6CCCCC6)cccc5[nH]4)c3n2)nc1 [Compound 196] ?
# output N

# input Also c1csc(-c2cccc3[nH]c(-c4n[nH]c5ccc(-c6ccncc6)nc45)cc23)c1 [Compound 354] ?
# output N

# input Also Fc1ccccc1-c1cccc2[nH]c(-c3n[nH]c4ccc(-c5cncc(CNCc6ccccc6)c5)nc34)cc12 [Compound 80] ?
# output N

# input Also Fc1ccccc1-c1cccc2[nH]c(-c3n[nH]c4ccc(-c5cncc(CN6CCCCC6)c5)nc34)cc12 [Compound 71] ?
# output Y

# input Also c1cncc(-c2ccc3[nH]nc(-c4cc5c(-c6cccnc6)cccc5[nH]4)c3n2)c1 [Compound 88] ?
# output Y

# input Also Fc1ccc(-c2cccc3[nH]c(-c4n[nH]c5ccc(-c6cncnc6)nc45)cc23)cc1 [Compound 55] ?
# output Y

# input Also CC(C)(C)C(=O)Nc1cncc(-c2ccc3[nH]nc(-c4cc5c(-c6cccc(F)c6)cccc5[nH]4)c3n2)c1 [Compound 8] ?
# output N

# input Also Cc1ccncc1-c1ccc2[nH]nc(-c3cc4c(-c5ccncc5)cccc4[nH]3)c2n1 [Compound 117] ?
# output Y

# input Also CN(C)Cc1cncc(-c2ccc3[nH]nc(-c4cc5ccccc5[nH]4)c3n2)c1 [Compound 265] ?
# output N

# input Also CN(C)Cc1cncc(-c2ccc3[nH]nc(-c4cc5c(-c6cccnc6)cccc5[nH]4)c3n2)c1 [Compound 97] ?
# output Y

# input Also Nc1cncc(-c2ccc3[nH]nc(-c4cc5ncccc5[nH]4)c3n2)c1 [Compound 507] ?
# output Y

---

Exercise: for every item that follows, state its recorded EC50.
- Tested on: primary human fibroblasts derived from IPF patients (LL29 cells) treated with TGF-β1
- ASSAY COMMENT: Inhibition of the fibrotic process: αSMA staining in TGF-β1 treated primary human fibroblasts from IPF patients (LL29 cells)
- Assay type: cell-based
- PROTOCOL CONDITIONS: Fibroblast, 96 h, TGF-β1 20 ng/mL, 4 days, % αSMA positive cells
Numbers only, in nM.

>>> assay_value("FC1(F)CCN(Cc2cncc(-c3ccc4[nH]nc(-c5cc6c(-c7cccs7)cccc6[nH]5)c4n3)c2)C1")
1290

Return reported EC50 values for all items listed beneath this line.
1. CC(C)Nc1cncc(-c2ccc3[nH]nc(-c4cc5c(-c6cccnc6)cccc5[nH]4)c3n2)c1
2. Cc1ccncc1-c1ccc2[nH]nc(-c3cc4c(-c5ccncc5)cccc4[nH]3)c2n1
3. c1cc(N2CCCCC2)c2cc(-c3n[nH]c4ccc(-c5cncc(OC6CCNCC6)c5)nc34)[nH]c2c1
4. CS(=O)(=O)NCc1cc(F)cc(-c2cccc3[nH]c(-c4n[nH]c5ccc(-c6cncc(OCc7ccccc7)c6)nc45)cc23)c1

# output
[214, 197, 3900, 276]

Return reported EC50 values for all items listed beneath this line.
1. CN(C)c1cncc(-c2ccc3[nH]nc(-c4cc5c(-c6ccoc6)cccc5[nH]4)c3n2)c1
2. Fc1cccc(-c2cccc3[nH]c(-c4n[nH]c5ccc(-c6cncc(CN7CCC(F)(F)C7)c6)nc45)cc23)c1

# output
1. 631
2. 409

---

- Test system: primary human fibroblasts derived from IPF patients (LL29 cells) treated with TGF-β1
- ASSAY COMMENT: Inhibition of the fibrotic process: αSMA staining in TGF-β1 treated primary human fibroblasts from IPF patients (LL29 cells)
- Type: cell-based
- PROTOCOL CONDITIONS: Fibroblast, 96 h, TGF-β1 20 ng/mL, 4 days, % αSMA positive cells
REPORTED METRIC: pEC50
Give bare numbers, as −log10 of the molar value.

Field: example entries. Status: answers known.
>>> assay_value("CN(C)CCOc1cncc(-c2ccc3[nH]nc(-c4cc5c(-c6cccnc6)cccc5[nH]4)c3n2)c1")
5.94
>>> assay_value("c1cc(-c2ccoc2)c2cc(-c3n[nH]c4ccc(-c5cncc(CNCC6CCCC6)c5)nc34)[nH]c2c1")
6.02
>>> assay_value("Cn1cc(-c2ccc3[nH]nc(-c4cc5c(-c6cccc(F)c6)cccc5[nH]4)c3n2)cn1")
6.64

Return reported pEC50 values for all items listed beneath this line.
1. Fc1cccc(-c2cccc3[nH]c(-c4n[nH]c5ccc(-c6cccnc6)nc45)cc23)c1
2. c1cc(-c2ccncc2)c2cc(-c3n[nH]c4ccc(-c5cncc(CN6CCCCC6)c5)nc34)[nH]c2c1
3. c1cc(-c2ccncc2)c2cc(-c3n[nH]c4ccc(-c5cncc(CNCC6CCCC6)c5)nc34)[nH]c2c1

# output
6.01
5.05
6.15

---

- System: Wnt activity (Sp5-Luc reporter, SW480 colon carcinoma cells)
- ASSAY COMMENT: Wnt activity screening assay: Sp5-Luc reporter gene in SW480 colon carcinoma cells
- Assay type: cell-based
- PROTOCOL CONDITIONS: Homo sapiens, overnight incubation, 10-point curve from 10 μM
REPORTED METRIC: pEC50
Numbers only, as −log10 of the molar value.

Field: example entries. Status: answers known.
>>> assay_value("CC(C)(C)CC(=O)Nc1cncc(-c2ccc3[nH]nc(-c4cc5c(-c6cc(F)cc(CNS(C)(=O)=O)c6)cccc5[nH]4)c3n2)c1")
6.53
>>> assay_value("FC1(F)CCN(Cc2cncc(-c3ccc4[nH]nc(-c5cc6ccccc6[nH]5)c4n3)c2)C1")
6.93
>>> assay_value("c1ccc(-c2cccc3[nH]c(-c4n[nH]c5ccc(-c6cncnc6)nc45)cc23)nc1")
6.37

Return reported pEC50 values for all items listed beneath this line.
1. O=C(Nc1cncc(-c2ccc3[nH]nc(-c4cc5c(-c6cccc(F)c6)cccc5[nH]4)c3n2)c1)C1CCCCC1
2. c1cc(-c2ccncc2)c2cc(-c3n[nH]c4ccc(-c5cncc(CNCC6CCCC6)c5)nc34)[nH]c2c1
3. c1cc(N2CCCCC2)c2cc(-c3n[nH]c4ccc(-c5cncc(OC6CCNCC6)c5)nc34)[nH]c2c1

# output
1. 5.79
2. 5.15
3. 5.62

// provenance: patent US10226453B2
